# tested-target: human recombinant FGFR4 catalytic structural domain protein (Homo sapiens (Human), UniProt P22455)
# Sequence (P22455 460-802): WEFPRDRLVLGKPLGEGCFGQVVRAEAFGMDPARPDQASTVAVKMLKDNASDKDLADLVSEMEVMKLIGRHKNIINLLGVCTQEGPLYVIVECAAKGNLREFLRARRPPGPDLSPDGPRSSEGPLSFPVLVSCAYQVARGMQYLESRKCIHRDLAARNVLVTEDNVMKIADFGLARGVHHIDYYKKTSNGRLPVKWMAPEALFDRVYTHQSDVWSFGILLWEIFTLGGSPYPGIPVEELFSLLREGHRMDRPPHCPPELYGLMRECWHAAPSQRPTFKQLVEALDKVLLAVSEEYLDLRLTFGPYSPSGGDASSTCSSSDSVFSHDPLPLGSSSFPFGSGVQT
# assay-procedure: FGFR4 activity inhibition test (HTRF kinase assay)
# stated-conditions: 90 μM ATP
Entries annotated with measured IC50

// known answers, use as guide
smiles_input=CN(C(=O)Nc1cc(Cl)c(C#N)cn1)c1ccc(CN2CCOCC2=O)c(C=O)n1 experimental_value="0.01 to 0.1 µM"
smiles_input=C[C@H](CO)Oc1cc(NC(=O)N(C)c2ccc(CN3CCN(C)CC3=O)c(C=O)n2)ncc1C#N experimental_value="< 0.01 µM"
smiles_input=CC(C)Oc1cc(NC(=O)N(C)c2cccc(C=O)n2)ncc1C#N experimental_value="< 0.01 µM"

Next up:
Please look at this compound and report its IC50: `COC[C@@H](C)Oc1cc(NC(=O)N(C)c2ccc(CN3CCOCC3=O)c(C=O)n2)ncc1C#N`
< 0.01 µM
